Tested on: respective peptides conjugated to BSA or KLH
MEASUREMENT_NOTES: ELISA total IgG antibody responses to the respective peptide
Type: in vivo, SJL/J mice
Parameters: key: −: negative; +/−: very weak; +: weak; ++: moderate; +++: strong
STUDY_CONDITIONS: Table 2; peptide analogues conjugated to reduced mannan-KLH
MEASURED_ATTRIBUTE: Antibody

INSERT INTO measurements (substance, assay_system, measured) VALUES
  ('E N P V V H F F A N I V T P R T P (ENPVVHFFANIVTPRTP) [[A^91]MBP83-99]', 'respective peptides conjugated to BSA or KLH', '+'),
  ('E N P V V H F F K N I V T P R T P (ENPVVHFFKNIVTPRTP) [MBP83-99, reference compound]', 'respective peptides conjugated to BSA or KLH', '+++'),
  ('E N P V V H F F F N I V T P R T P (ENPVVHFFFNIVTPRTP) [[F^91]MBP83-99]', 'respective peptides conjugated to BSA or KLH', '+/−'),
  ('E N P V V H F F Y N I V T P R T P (ENPVVHFFYNIVTPRTP) [[Y^91]MBP83-99]', 'respective peptides conjugated to BSA or KLH', '+++');

====

Tested on: spleen cells
MEASUREMENT_NOTES: T cell proliferation assay ([3H]-thymidine uptake)
Format: in vivo, SJL/J mice
Set-up: key: −: negative; +/−: very weak; +: weak; ++: moderate; +++: strong
STUDY_CONDITIONS: Table 3; complete Freund's adjuvant
MEASURED_ATTRIBUTE: Proliferation cross reaction

INSERT INTO results (substance, measured) VALUES
  ('E N P V V H F F A N I V T P R T P (ENPVVHFFANIVTPRTP) [[A^91]MBP83-99]', '++'),
  ('E N P V V H F F R N I V T A R T P (ENPVVHFFRNIVTARTP) [[R^91, A^96]MBP83-99]', '+/−'),
  ('E N P V V H F F F N I V T P R T P (ENPVVHFFFNIVTPRTP) [[F^91]MBP83-99]', '++'),
  ('E N P V V H F F Y N I V T P R T P (ENPVVHFFYNIVTPRTP) [[Y^91]MBP83-99]', '+/−'),
  ('E N P V V H F F E N I V T P R T P (ENPVVHFFENIVTPRTP) [[E^91]MBP83-99]', '++'),
  ('cyclo(83-99)E N P V V H F F A N I V T P R T P (ENPVVHFFANIVTPRTP; cyclised or stapled) [cyclo(83-99)[A^91]MBP83-99]', '++');

====

Test system: IFN-γ secretion by T cells
MEASUREMENT_NOTES: IFN-γ ELISpot of spleen cells from immunized mice
Assay type: in vivo, SJL/J mice
STUDY_CONDITIONS: 50 μg peptide emulsified in CFA, one injection, spleen cells 28 days
From the text: Female 6-8 week old SJL/J mice used in all experiments, were purchased from Walter and Eliza Hall Institute (VIC Australia) and housed at the Biological Research Laboratory at Burnet Institute at Austin, Heidelberg, Australia. […] ELISpot analyses specific T cell responses to antigens by detecting the secretion of specific cytokines. Spleen cells from immunized SJL/J mice were isolated 14 days after immunization and assessed by ELISpot for IFN-γ, IL-4 or IL-10 secretion by T cells. […]
MEASURED_ATTRIBUTE: IFN-γ secreting T cells (in words)

INSERT INTO results (substance, measured) VALUES
  ('cyclo(83-99)E N P V V H F F A N I V T P R T P (ENPVVHFFANIVTPRTP; cyclised or stapled) [cyclo(83-99)[A^91]MBP83-99]', 'lower'),
  ('E N P V V H F F A N I V T P R T P (ENPVVHFFANIVTPRTP) [[A^91]MBP83-99]', 'lower');
